Value source: PubChem BioAssay (NCI)

System: TK-10 renal
Protocol: NCI tumour cell line growth inhibition, 48 h

{"Compound": "CC1(C)CC(=O)c2c(nc3c(ccc4ccccc43)c2-c2ccc(NC(=O)CCC(=O)Nc3ccc(-c4c5c(nc6c4ccc4ccccc46)CC(C)(C)CC5=O)cc3)cc2)C1", "TGI": "> 100 µM"}
{"Compound": "C[N+](C)(C)CC1CCCCC1=O (configuration not stated)", "TGI": "> 100 µM"}
{"Compound": "C#CCN(N=O)C(=O)ON1C(=O)CCC1=O", "TGI": "> 100 µM"}
{"Compound": "O=c1c2c(-c3ccccc3)c3ccccc3nc2cnn1-c1ccccc1", "TGI": "> 100 µM"}
{"Compound": "Cc1cccc2oc3c(c(=O)c12)CC(O)C(C)(C)O3 (configuration not stated)", "TGI": "> 100 µM"}
{"Compound": "O=c1cc(-c2ccccc2)[nH]c2cc(F)cc(F)c12", "TGI": "> 100 µM"}
{"Compound": "COc1ccc(-c2c(-c3ccc(OC)cc3)n3c(=O)n(C)c(=O)n23)cc1", "TGI": "> 100 µM"}
{"Compound": "OC1=CN=COc2ccccc21", "TGI": "> 100 µM"}
{"Compound": "COc1ccc(O)c(C(=O)CCC(=O)O)c1", "TGI": "> 100 µM"}
{"Compound": "COc1ccc(/C=C(\\NC(=O)c2ccccc2)c2nc3ccccc3[nH]2)cc1OC", "TGI": "> 100 µM"}
{"Compound": "CCOC(=O)C1Cc2ccc3c4c(ccc(c24)C1)CC(C(=O)OCC)C3", "TGI": "> 100 µM"}
{"Compound": "O=[N+]([O-])c1cc([As](Br)c2ccc(O)c([N+](=O)[O-])c2)ccc1O", "TGI": "3.14 µM"}
{"Compound": "CC(=O)C(C)C(=O)N1C(=O)N(C)C2(C)N(C)C(=O)NC12C (configuration not stated)", "TGI": "> 100 µM"}
{"Compound": "N#Cc1c(Cl)c2cccnc2n2c1nc1ccccc12", "TGI": "3.09 µM"}
{"Compound": "CCCC(=O)N[C@H]1CCc2cc(OC)c(OC)c(OC)c2-c2ccc(SC)c(=O)cc21", "TGI": "99.9 µM"}
{"Compound": "CC12CC(=O)Nc3ccccc3N1C(c1ccccc1)=NO2 (configuration not stated)", "TGI": "> 100 µM"}
{"Compound": "ClCc1cccc(Cn2cnc3c(Cl)nc(Cl)nc32)c1", "TGI": "3.95 µM"}
{"Compound": "CCC(C)C(N)C(=O)N/N=C\\c1c2c(nc3ccccc13)-c1cc3c(c(=O)n1C2)COC(=O)[C@]3(O)CC (some centres not stated)", "TGI": "> 100 µM"}
{"Compound": "Nc1c(C(=O)c2cccc(C#CCN3CCCCC3)c2)cnn1-c1ccc(F)cc1", "TGI": "> 25 µM"}
{"Compound": "COc1cc(F)ccc1-c1cc(Nc2cc(CS(C)(=N)=O)ccn2)ncc1F (configuration not stated)", "TGI": "> 100 µM"}
{"Compound": "O=[N+]([O-])c1ccc(C2ON=C(c3ccccc3)N2C23CC4CC(CC(C4)C2)C3)cc1 (configuration not stated)", "TGI": "> 10 µM"}
{"Compound": "CC12CCCCC1=C(F)C(F)(F)S2 (configuration not stated)", "TGI": "69.9 µM"}

* * *

System: DMS 273 small cell lung
Protocol: NCI tumour cell line growth inhibition, 48 h

{"Compound": "O=C1C(CO)=C[C@H](O)[C@H]2O[C@@H]12", "TGI": "485 µM"}
{"Compound": "COc1cc2c(c3c1c(=O)c1ccccc1n3C)C=CC(C)(C)O2", "TGI": "> 100 µM"}
{"Compound": "CCCC(=O)N[C@H]1CCc2cc(OC)c(OC)c(OC)c2-c2ccc(SC)c(=O)cc21", "TGI": "> 100 µM"}
{"Compound": "O=c1cc(-c2ccccc2)[nH]c2cc(F)cc(F)c12", "TGI": "> 100 µM"}
{"Compound": "c1ccc2c(c1)NCc1cc3ccccc3nc1O2", "TGI": "> 100 µM"}
{"Compound": "COC(=O)C(C(=O)C(=O)Nc1ccc(C)cc1C)c1csc(-n2nc(-c3ccccc3)cc2-c2ccccc2)n1 (stereo unspecified)", "TGI": "> 100 µM"}

* * *

System: 786-0 renal
Protocol: NCI tumour cell line growth inhibition, 48 h
Documented TGI across a set of molecules

{"Molecule": "FC(F)(F)c1ccc2c(c1)nc1n2C(c2c(Cl)cccc2Cl)SC1 (stereo unspecified)", "TGI": "33.4 µM"}
{"Molecule": "CCSc1ccc([C@@H]2[C@@H](O)C(=O)N2c2cc(OC)c(OC)c(OC)c2)cc1", "TGI": "29 µM"}
{"Molecule": "O=C(NN1C(=O)CSC1c1cccc(Cl)c1)C(O)c1ccccc1 (stereo unspecified)", "TGI": "> 100 µM"}
{"Molecule": "COc1ccc2oc(S(=O)(=O)N3CC(CCl)c4ccc(N)cc43)cc2c1 (stereo unspecified)", "TGI": "> 10.6 µM"}
{"Molecule": "Nc1c(C(=O)c2cccc(C#CCN3CCCCC3)c2)cnn1-c1ccc(F)cc1", "TGI": "> 25 µM"}
{"Molecule": "Clc1ccc2c(NCCCCN3OC3c3ccccc3)ccnc2c1 (stereo unspecified)", "TGI": "6.67 µM"}
{"Molecule": "C1CCCCC2(CCCCCCCCC3(CCC1)SCCS3)SCCS2", "TGI": "> 100 µM"}
{"Molecule": "COc1ccc2c(O)c(S(=O)(=O)c3ccc(C)cc3)c(=O)oc2c1OC", "TGI": "> 100 µM"}
{"Molecule": "CC(=O)OC(C(=O)[O][Sn]([CH3])([CH3])[CH3])c1ccccc1 (stereo unspecified)", "TGI": "> 100 µM"}
{"Molecule": "O=C1/C(=C\\c2ccco2)Oc2ccccc21", "TGI": "> 100 µM"}
{"Molecule": "COc1cc(OC)c2sc(-c3ccc(-n4cncc4-c4ccc(OC)c(OC)c4)cc3)nc2c1", "TGI": "> 100 µM"}
{"Molecule": "COC(=O)CCC1(CCC(=O)OC)CCCCCCC(CCC(=O)OC)(CCC(=O)OC)C(=O)C1=O", "TGI": "> 100 µM"}
{"Molecule": "CN(C)CCCOc1cccc(NC2=C(Cl)C(=O)C(Nc3cccc(OCCCN(C)C)c3)=C(Cl)C2=O)c1", "TGI": "2.09 µM"}
{"Molecule": "Cc1nc2ccc(S(=O)(=O)NS(=O)(=O)c3ccc(-c4ccccc4)cc3)cc2c(=O)n1NS(=O)(=O)c1ccc(-c2ccccc2)cc1", "TGI": "> 100 µM"}
{"Molecule": "CCOc1ccc(N=C2NC(=O)C(CC(=O)Nc3ccccc3[N+](=O)[O-])S2)cc1 (stereo unspecified)", "TGI": "> 100 µM"}
{"Molecule": "c1ccc(-c2nc3n(c2-c2ccc4c(c2)OCO4)CCC3)nc1", "TGI": "24.9 µM"}
{"Molecule": "CCC(C)C(N)C(=O)N/N=C\\c1c2c(nc3ccccc13)-c1cc3c(c(=O)n1C2)COC(=O)[C@]3(O)CC (stereo partly specified)", "TGI": "1.12 µM"}
{"Molecule": "Cc1ccc(S(=O)C[C@](NC(=O)OCc2ccccc2)(Sc2ccccc2)C(F)F)cc1 (stereo partly specified)", "TGI": "29.2 µM"}
{"Molecule": "C=C1C(=O)C23[C@H](O)C1CC[C@H]2[C@]12COC3(O)[C@@H](O)[C@@H]1C(C)(C)CC[C@@H]2O", "TGI": "24 µM"}
{"Molecule": "CCOP(=O)(OCC)/C(C#N)=C/c1ccccn1", "TGI": "> 100 µM"}
{"Molecule": "N=c1oc2ccccc2cc1-c1nc2ccccc2[nH]1", "TGI": "28.8 µM"}
{"Molecule": "Nc1nc(N)c2cc(Sc3ccc4ccccc4c3)ccc2n1", "TGI": "3.27 µM"}
{"Molecule": "CN(C)N1C(=O)SCC(c2ccccc2)(c2ccccc2)C1=O", "TGI": "> 100 µM"}
{"Molecule": "CCn1cc(/C=C2\\Oc3cc(OCC#N)ccc3C2=O)c2cc(OC)ccc21", "TGI": "> 40.9 µM"}
{"Molecule": "COC(=O)c1cc(=O)nc2cc3cccccc3n12", "TGI": "> 100 µM"}
{"Molecule": "C=C1C(=O)OC2C1CCC(C)C1(O)C=CC(=O)C21C (stereo unspecified)", "TGI": "> 10 µM"}
{"Molecule": "CC(=O)NC1(NC(C)=O)C2CC(C1Cc1ccccc1)C(C)(C)C2C (stereo unspecified)", "TGI": "> 100 µM"}
{"Molecule": "COc1cc(C2=NN(C(C)=O)C(c3cc(OC)c(OC)c(OC)c3)C2)ccc1O (stereo unspecified)", "TGI": "> 100 µM"}
{"Molecule": "COc1ccc(C2=NC(=O)NC2c2ccc(OC)cc2)cc1 (stereo unspecified)", "TGI": "> 100 µM"}
{"Molecule": "O=c1[nH]nc(-c2ccccc2)n1/N=C/c1ccccc1O", "TGI": "> 100 µM"}
{"Molecule": "C[C@@H](C[C@H]1OC(C)(C)O[C@@H]1C(C)(C)O)[C@H]1CC=C2[C@]3(C)[C@H](O)C[C@H]4C(C)(C)[C@H](O)CC[C@]4(C)[C@H]3CC[C@]21C", "TGI": "18.5 µM"}
{"Molecule": "CCOc1ccc(N=C(NC(=O)c2ccccc2)SC)cc1", "TGI": "> 100 µM"}
{"Molecule": "CC1(C)CC(=O)c2c(nc3c(ccc4ccccc43)c2-c2ccc(NC(=O)CCC(=O)Nc3ccc(-c4c5c(nc6c4ccc4ccccc46)CC(C)(C)CC5=O)cc3)cc2)C1", "TGI": "> 100 µM"}
{"Molecule": "Clc1ccc(-c2cc(-c3cc4cc(Br)ccc4nc3Cl)on2)cc1", "TGI": "> 50 µM"}
{"Molecule": "Cc1ccc(S(=O)(=O)c2nc(-c3ccccc3)oc2S(C)(=O)=O)cc1", "TGI": "3.19 µM"}
{"Molecule": "CC(C)(C)OC(=O)N1NC(c2ccccc2)CC1c1ccccc1 (stereo unspecified)", "TGI": "> 100 µM"}
{"Molecule": "Oc1ccc(/C=C/c2cccc(/C=C/c3ccc(O)c(O)c3)n2)cc1O", "TGI": "24.7 µM"}
{"Molecule": "Cn1cc(-c2cc(-c3cn(C)c4ccc(Cl)cc34)[nH]n2)c2cc(Cl)ccc21", "TGI": "11.4 µM"}
{"Molecule": "COc1cccc(-c2cc(=O)c3cc4c(cc3[nH]2)OCO4)c1", "TGI": "10.2 µM"}
{"Molecule": "OC1=CN=COc2ccccc21", "TGI": "> 100 µM"}
{"Molecule": "CC(C)(C)NCC(O)COc1c(Br)c(Br)c(Br)c2c1OC(C)(C)C2 (stereo unspecified)", "TGI": "3.21 µM"}
